- system name: 5-hydroxytryptamine receptor 1A (Homo sapiens)
- protocol text: Displacement of [3H]8-OH-DPAT from recombinant human 5-HT1A receptor expressed in HEK293 cell membranes at 10 uM after 60 mins by TopCount scintillation counting method relative to control
Recorded measurements of inhibition, one per entry

Use these answered entries as a reference point.
| molecular string | inhibition |
| --- | --- |
| COc1ccccc1N1CCN(CCc2coc3ccccc23)CC1 | 98.5% |
| Fc1cccc(-c2cc(F)ccc2N2CCN(CCCc3c[nH]c4ccc(F)cc34)CC2)c1 | > 90% |

q: Return value of inhibition for input `Fc1ccc(-c2ccccc2N2CCN(CCc3c[nH]c4ccc(F)cc34)CC2)cc1` , no commentary.
a: 101%

q: Return value of inhibition for input `c1ccc(-c2ccccc2N2CCN(CCc3cc4ccccc4o3)CC2)cc1` , no commentary.
a: 97.7%

q: Return value of inhibition for input `COc1ccc(-c2ccccc2N2CCN(CCc3c[nH]c4ccc(F)cc34)CC2)cc1` , no commentary.
a: 99.2%
